The reported measurements were obtained from patent US10945992B1.

EXPERIMENT_NOTES: TRM-201-PK-102 single-dose four-period crossover pharmacokinetic study, fasted healthy subjects
Format: in vivo, human
MEASUREMENT_PARAMETERS: female, human, plasma, oral, 12.5 mg, 102 study, females, read-out: arithmetic mean Cmax
MEASURED_ENDPOINT: Cmax (ng/mL)
Return type: number; implicit unit ng/mL.

CS(=O)(=O)c1ccc(C2=C(c3ccccc3)C(=O)OC2)cc1 [TRM-201] yielded Cmax of 168

---

EXPERIMENT_NOTES: TRM-201-PK-102 single-dose four-period crossover pharmacokinetic study, fasted healthy subjects
Assay type: in vivo, human
MEASUREMENT_PARAMETERS: human, plasma, oral, 20 mg, 102 study, Hispanic or Latino subjects, read-out: arithmetic mean Cmax
MEASURED_ENDPOINT: Cmax (ng/mL)
Record the value in ng/mL, omitting the unit from your answer.

Just so you know, measured Cmax for CS(=O)(=O)c1ccc(C2=C(c3ccccc3)C(=O)OC2)cc1 came out at 281

---

EXPERIMENT_NOTES: TRM-201-PK-102 single-dose four-period crossover pharmacokinetic study, fasted healthy subjects
Type: in vivo, human
MEASUREMENT_PARAMETERS: human, plasma, oral, 17.5 mg, 102 study, 18-40 years, read-out: arithmetic mean AUC0-∞
MEASURED_ENDPOINT: AUC(0-inf) (ng·h/mL)
Enter your answer as a number in ng·h/mL; do not include the unit.

Documented AUC(0-inf) of CS(=O)(=O)c1ccc(C2=C(c3ccccc3)C(=O)OC2)cc1 : 2820

---

EXPERIMENT_NOTES: TRM-201-PK-102 single-dose four-period crossover pharmacokinetic study, fasted healthy subjects
Assay type: in vivo, human
MEASUREMENT_PARAMETERS: human, plasma, oral, 12.5 mg, 15 minutes, read-out: geometric mean plasma concentration
MEASURED_ENDPOINT: concentration at 15 minutes

get_value(item= CS(=O)(=O)c1ccc(C2=C(c3ccccc3)C(=O)OC2)cc1 [TRM-201] , readout=concentration at 15 minutes) returns 0.529 ng/mL

---

EXPERIMENT_NOTES: TRM-201-PK-102 single-dose four-period crossover pharmacokinetic study, fasted healthy subjects
Format: in vivo, human
MEASUREMENT_PARAMETERS: human, plasma, oral, 25 mg, 102 study only, read-out: arithmetic mean Cmax
MEASURED_ENDPOINT: Cmax (ng/mL)
Field format: number, assumed ng/mL, no unit text.

What the record says about CS(=O)(=O)c1ccc(C2=C(c3ccccc3)C(=O)OC2)cc1 [TRM-201] : Cmax is 349

---

EXPERIMENT_NOTES: TRM-201-PK-102 single-dose four-period crossover pharmacokinetic study, fasted healthy subjects
Assay type: in vivo, human
MEASUREMENT_PARAMETERS: human, plasma, oral, 20 mg, 102 study, 18-40 years, read-out: geometric mean Cmax
MEASURED_ENDPOINT: Cmax (ng/mL)
Kindly provide the numeric value in ng/mL only, without the unit symbol.

Recorded result, CS(=O)(=O)c1ccc(C2=C(c3ccccc3)C(=O)OC2)cc1 , Cmax: 289

---

EXPERIMENT_NOTES: TRM-201-PK-102 single-dose four-period crossover pharmacokinetic study, fasted healthy subjects
Type: in vivo, human
MEASUREMENT_PARAMETERS: human, plasma, oral, 20 mg, 102 study, White subjects, read-out: arithmetic mean Cmax
MEASURED_ENDPOINT: Cmax (ng/mL)
Response body: numeric value in ng/mL, unit text excluded.

Lab book: Cmax of CS(=O)(=O)c1ccc(C2=C(c3ccccc3)C(=O)OC2)cc1 noted as 271

---

EXPERIMENT_NOTES: TRM-201-PK-102 single-dose four-period crossover pharmacokinetic study, fasted healthy subjects
Type: in vivo, human
MEASUREMENT_PARAMETERS: human, plasma, oral, 20 mg, 102 study, body weight 47-70 kg, read-out: arithmetic mean AUC0-∞
Description: A Single-Dose, Open-Label, Phase 1, Four-Period Crossover Pharmacokinetic Study of TRM-201 (Rofecoxib) 12.5 mg, 17.5 mg, 20 mg and 25 mg Administered to Healthy Subjects in a Fasting State, with Comparison to Historical Pharmacokinetic Parameters of Previously Marketed Rofecoxib (“TRM-201-PK-102” or “102 PK Study”) […] In each of the four dosing periods, subjects fasted overnight for at least 10 hours before study drug dosing. […] Pharmacokinetic and safety endpoints were evaluated. […]
MEASURED_ENDPOINT: AUC(0-inf) (µg·h/mL)
Give just the numeric value; µg·h/mL need not be written.

Entry CS(=O)(=O)c1ccc(C2=C(c3ccccc3)C(=O)OC2)cc1 [TRM-201] ; AUC(0-inf) = 3.65

---

EXPERIMENT_NOTES: TRM-201-PK-102 single-dose four-period crossover pharmacokinetic study, fasted healthy subjects
Assay type: in vivo, human
MEASUREMENT_PARAMETERS: human, plasma, oral, 20 mg, 102 study, 53-60 years, read-out: arithmetic mean AUC0-∞
Experimental: A Single-Dose, Open-Label, Phase 1, Four-Period Crossover Pharmacokinetic Study of TRM-201 (Rofecoxib) 12.5 mg, 17.5 mg, 20 mg and 25 mg Administered to Healthy Subjects in a Fasting State, with Comparison to Historical Pharmacokinetic Parameters of Previously Marketed Rofecoxib (“TRM-201-PK-102” or “102 PK Study”) […] In each of the four dosing periods, subjects fasted overnight for at least 10 hours before study drug dosing. […] Pharmacokinetic and safety endpoints were evaluated. […]
MEASURED_ENDPOINT: AUC(0-inf) (ng·h/mL)
Unit ng·h/mL implied. Number only.

CS(=O)(=O)c1ccc(C2=C(c3ccccc3)C(=O)OC2)cc1 yielded AUC(0-inf) of 3940

---

EXPERIMENT_NOTES: TRM-201-PK-102 single-dose four-period crossover pharmacokinetic study, fasted healthy subjects
Type: in vivo, human
MEASUREMENT_PARAMETERS: female, human, plasma, oral, 12.5 mg, 102 study, females, read-out: geometric mean Cmax
MEASURED_ENDPOINT: Cmax
Answer by giving the amount and then stating its unit.

Cmax reported for this molecule CS(=O)(=O)c1ccc(C2=C(c3ccccc3)C(=O)OC2)cc1 : 160 ng/mL

---

EXPERIMENT_NOTES: TRM-201-PK-102 single-dose four-period crossover pharmacokinetic study, fasted healthy subjects
Assay type: in vivo, human
MEASUREMENT_PARAMETERS: human, plasma, oral, 12.5 mg, 102 study, 41-52 years, read-out: geometric mean AUC0-∞
MEASURED_ENDPOINT: AUC(0-inf) (ng·h/mL)
Express the result in ng·h/mL but write the number alone.

Documented AUC(0-inf) of CS(=O)(=O)c1ccc(C2=C(c3ccccc3)C(=O)OC2)cc1 : 1880

---

EXPERIMENT_NOTES: TRM-201-PK-102 single-dose four-period crossover pharmacokinetic study, fasted healthy subjects
Type: in vivo, human
MEASUREMENT_PARAMETERS: human, plasma, oral, 20 mg, 102 study, Black or African-American subjects, read-out: arithmetic mean Cmax
MEASURED_ENDPOINT: Cmax (ng/mL)
Write the number in ng/mL without appending the unit.

Measured Cmax, CS(=O)(=O)c1ccc(C2=C(c3ccccc3)C(=O)OC2)cc1 : 298

---

EXPERIMENT_NOTES: TRM-201-PK-102 single-dose four-period crossover pharmacokinetic study, fasted healthy subjects
Assay type: in vivo, human
MEASUREMENT_PARAMETERS: male, human, plasma, oral, 25 mg, 102 study, males, read-out: arithmetic mean Cmax
Description: A Single-Dose, Open-Label, Phase 1, Four-Period Crossover Pharmacokinetic Study of TRM-201 (Rofecoxib) 12.5 mg, 17.5 mg, 20 mg and 25 mg Administered to Healthy Subjects in a Fasting State, with Comparison to Historical Pharmacokinetic Parameters of Previously Marketed Rofecoxib (“TRM-201-PK-102” or “102 PK Study”) […] In each of the four dosing periods, subjects fasted overnight for at least 10 hours before study drug dosing. […] Pharmacokinetic and safety endpoints were evaluated. […]
MEASURED_ENDPOINT: Cmax (ng/mL)
Kindly provide the numeric value in ng/mL only, without the unit symbol.

The recorded Cmax for CS(=O)(=O)c1ccc(C2=C(c3ccccc3)C(=O)OC2)cc1 is 302
